TGI overview
# Tested on: HOP-62 NSCLC
# Test description: NCI tumour cell line growth inhibition, 48 h
Readout name: TGI

[
  {
    "Compound": "O=C1NC2(CCNCC2)Oc2ccccc21",
    "Result value": "> 100 µM"
  },
  {
    "Compound": "COc1cc(-c2nn(-c3cccc(NC(=O)CCN4CCN(c5ccccc5)CC4)c3)cc2-c2ccncc2)ccc1Cl",
    "Result value": "> 100 µM"
  },
  {
    "Compound": "COc1ccc(C2NC(=S)NC3=C2CCOc2c3ccc3ccccc23)cc1 (stereo not given)",
    "Result value": "> 100 µM"
  },
  {
    "Compound": "O=C1NC(N/N=C\\c2ccccc2)=N/C1=C/c1ccccc1",
    "Result value": "48.2 µM"
  },
  {
    "Compound": "C1CSCC2(COC2)CSCCSCC2(COC2)CS1",
    "Result value": "> 100 µM"
  }
]

----------
TGI overview
# Tested on: SF-539 CNS
# Test description: NCI tumour cell line growth inhibition, 48 h

[
  {
    "Compound": "COc1cc2c3c(n(CCCNCCCNCCCN)c(=O)c2cc1OC)-c1cc2c(cc1C3=O)OCO2",
    "TGI": "> 100 µM"
  },
  {
    "Compound": "O=[N+]([O-])c1ccc(N=Nc2c(O)[nH]c3ccccc23)c([N+](=O)[O-])c1",
    "TGI": "10.2 µM"
  },
  {
    "Compound": "O=[N+]([O-])c1cccc(Nc2nc(Cl)nc(Cl)n2)c1",
    "TGI": "> 100 µM"
  },
  {
    "Compound": "Cc1[nH]c(-c2ccccc2)c2nc(N(C)C)oc(=O)c12",
    "TGI": "> 100 µM"
  },
  {
    "Compound": "C=C1CC[C@H]2C(C)=CC[C@H]3C(=C)C(=O)O[C@@H]3[C@@H]12",
    "TGI": "> 100 µM"
  },
  {
    "Compound": "CC(C)CC(N)C(=O)NC(C(=O)NC(CCCNC(=N)N)C(=O)NC(CS)C(=O)NC1CSCC(C(=O)NC(Cc2ccccc2)C(=O)NC(C(=O)NC(CCCNC(=N)N)C(=O)O)C(C)C)NC(=O)C2CCCN2C(=O)C(CCCCN)NC(=O)C2CCCN2C(=O)C2CCCN2C(=O)C(Cc2ccc(O)cc2)NC(=O)C(CO)NC(=O)C(CCCCN)NC(=O)C(C(C)O)NC(=O)C(Cc2c[nH]c3ccccc23)NC1=O)C(C)C (centres undefined)",
    "TGI": "> 25 µM"
  },
  {
    "Compound": "Cc1ccc(-c2cn3c(nc4ccccc43)c(/C=C/c3ccco3)n2)cc1",
    "TGI": "> 100 µM"
  },
  {
    "Compound": "COc1ccc2c(c1OC)O/C(=C\\c1ncc([N+](=O)[O-])n1C)C2=O",
    "TGI": "10.2 µM"
  },
  {
    "Compound": "CC(Cn1c2c(c3cc(O)ccc31)CCc1ccc(O)cc1-2)N(C)C (centres undefined)",
    "TGI": "32.1 µM"
  }
]

----------
# Tested on: NCI-H522 lung
# Test description: NCI tumour cell line growth inhibition, 48 h
Mark Not satisfied for TGI values under 8 µM, and Satisfied for everything at or above.

[
  {
    "Molecule": "CC1(C)C2CCC13C(=O)C1OC3(C2)C2C(=O)c3c(ccc4c3ccc3ccccc34)C(=O)C12 (stereo not given)",
    "Group": "Satisfied"
  },
  {
    "Molecule": "COc1cccc(-c2nc3sccn3c2-c2ccnc(NCCCNS(=O)(=O)c3ccccc3)c2)c1",
    "Group": "Satisfied"
  },
  {
    "Molecule": "Cc1nc2ccccc2c(=O)n1/N=C(\\N=Nc1cc(Cl)ccc1Cl)c1ccccc1",
    "Group": "Satisfied"
  },
  {
    "Molecule": "CC(=O)[C@H]1[C@H](O)C[C@@]2(C)[C@@H]3CCc4cc(O)c(OC5OC(CO)C(O)C(O)C5O)cc4C3(C)C(=O)C[C@]12C (stereo not given in full)",
    "Group": "Satisfied"
  },
  {
    "Molecule": "CCCCC1(C(NC(=O)c2ccccc2Cl)c2ccncc2)C(=O)N(c2ccccc2)N(c2ccccc2)C1=O (stereo not given)",
    "Group": "Satisfied"
  },
  {
    "Molecule": "CC(=O)Oc1cc2cnc3c4cc(OC(C)=O)c(OC(C)=O)cc4ccc3c2cc1OC(C)=O",
    "Group": "Not satisfied"
  },
  {
    "Molecule": "CC(=O)c1ccc(Nc2c3ccccc3nc3occc23)cc1",
    "Group": "Not satisfied"
  },
  {
    "Molecule": "CN(N=O)c1nc2c(C(N)=O)ncn2s1",
    "Group": "Satisfied"
  },
  {
    "Molecule": "CN(CCc1ccccn1)c1ccc2c(c1)C(=O)c1ccccc1-2",
    "Group": "Satisfied"
  },
  {
    "Molecule": "C=C1C(=O)O[C@H]2C1C[C@H](O)[C@@]1(C)OC1CC[C@@]1(C)O[C@H]21 (stereo not given in full)",
    "Group": "Satisfied"
  },
  {
    "Molecule": "NC(=O)/C(=C/n1cnc(-c2cc(C(F)(F)F)cc(C(F)(F)F)c2)n1)c1cncnc1",
    "Group": "Not satisfied"
  },
  {
    "Molecule": "CCc1ccc2c(c1)N(CCO)C1=C(C(=O)OC1)C2c1cc(OC)c(OC)c(OC)c1 (stereo not given)",
    "Group": "Not satisfied"
  },
  {
    "Molecule": "COc1ccc(C2C3CCc4ccccc4C3=NN2S(=O)(=O)c2cccc(C(=O)O)c2OC)cc1 (stereo not given)",
    "Group": "Satisfied"
  },
  {
    "Molecule": "CNC(=O)OCc1nc(SC)n(C)c1COC(=O)NC",
    "Group": "Satisfied"
  },
  {
    "Molecule": "CCOC(=O)c1c(CN2CCN(C)CC2)nc2ccc(Cl)cc2c1-c1ccccc1",
    "Group": "Satisfied"
  },
  {
    "Molecule": "CN(C)CCN1CCc2c([nH]c3ccccc23)C1c1cccnc1 (stereo not given)",
    "Group": "Satisfied"
  },
  {
    "Molecule": "Cc1cc(NN=C(c2ccc(O)cc2)c2ccc(O)cc2)c([N+](=O)[O-])cc1[N+](=O)[O-]",
    "Group": "Satisfied"
  },
  {
    "Molecule": "COc1ccc2c(c1OC)O/C(=C\\c1ncc([N+](=O)[O-])n1C)C2=O",
    "Group": "Not satisfied"
  },
  {
    "Molecule": "COc1cc2c(c(OC)c1OC)C(=O)NCCC2",
    "Group": "Satisfied"
  },
  {
    "Molecule": "Cn1c(=O)c2c(nc(N/N=C/c3ccccc3C(=O)O)n2C)n(C)c1=O",
    "Group": "Satisfied"
  },
  {
    "Molecule": "COc1cc2cc(Oc3cccc(NC(=O)Nc4cc(C(F)(F)F)cc(C(F)(F)F)c4)c3)c(C)nc2cc1OC",
    "Group": "Not satisfied"
  },
  {
    "Molecule": "C=C1C2=C(CCCC2)C(=O)OC12CCCCC2",
    "Group": "Satisfied"
  },
  {
    "Molecule": "O=c1cccc(Cl)[nH]1",
    "Group": "Satisfied"
  },
  {
    "Molecule": "COc1ccc(N2C(=O)C(=O)C3(CCCCC3)C2=O)c2ccccc12",
    "Group": "Satisfied"
  },
  {
    "Molecule": "COc1ccccc1NC(=O)C1=C(C)NC(C)=C(C(=O)Nc2ccccc2OC)C1c1ccco1",
    "Group": "Satisfied"
  },
  {
    "Molecule": "Cc1ccc(-c2cc(-c3ccccc3)c(C#N)c(=O)[nH]2)cc1",
    "Group": "Satisfied"
  },
  {
    "Molecule": "CCOC(=O)C(=CNc1ccc(F)c(F)c1)C(=O)OCC",
    "Group": "Satisfied"
  },
  {
    "Molecule": "OCCN(CO)CO",
    "Group": "Satisfied"
  },
  {
    "Molecule": "CCCCCCCCC(O)c1ccc(/C=C\\C(O)CCCC(=O)O)s1 (stereo not given)",
    "Group": "Satisfied"
  },
  {
    "Molecule": "C=C1C[C@@H]2O[C@H]3[C@H]4[C@@H](CC[C@@](C)(OC(=O)CCC)[C@H]42)[C@@H](C)C(=O)O[C@@]3(C)CC[C@H]1OO",
    "Group": "Satisfied"
  },
  {
    "Molecule": "Cc1ccc(-c2cc(-c3ccc(Cl)cc3)nc(/N=C3\\C(=O)N(CN(C)C)c4ccccc43)n2)cc1",
    "Group": "Satisfied"
  },
  {
    "Molecule": "COc1ccccc1C(=O)N(Cc1ccccc1)c1ccc(Cl)c(C(=O)OC(C)C)c1",
    "Group": "Satisfied"
  },
  {
    "Molecule": "O=C(O)c1ccccc1NCn1c(=S)sc2ccccc21",
    "Group": "Satisfied"
  },
  {
    "Molecule": "CCCCCC[C@H]1C(=O)O[C@H](C)[C@H](NC(=O)c2cccc(NC=O)c2OC)C(=O)O[C@@H](C)[C@@H]1OC(=O)CCC (tested in a mixture with another compound)",
    "Group": "Satisfied"
  },
  {
    "Molecule": "C[C@@H]1CCc2ncc(F)cc2[C@H]2CCCN2c2ccn3ncc(c3n2)C(=O)N1",
    "Group": "Satisfied"
  },
  {
    "Molecule": "CCSC1=N/C(=C\\c2ccco2)C(=O)N1",
    "Group": "Satisfied"
  },
  {
    "Molecule": "COc1ccccc1-c1c(C#N)c(N)[nH]c(=S)c1C#N",
    "Group": "Satisfied"
  },
  {
    "Molecule": "CCCCCCCCCCCCCCCc1nc(=S)[nH][nH]1",
    "Group": "Satisfied"
  },
  {
    "Molecule": "CC(C)[Si]1(C(C)C)OCC2OC(n3ccc(=O)[nH]c3=O)C([Se]c3ccccc3)C2O[Si](C(C)C)(C(C)C)O1 (stereo not given)",
    "Group": "Not satisfied"
  }
]
